molecular target: Solute carrier family 2, facilitated glucose transporter member 1 (Homo sapiens); test: ST_JUDE_LEISH: Cytotoxicity at 2uM final concentration against transgenic Leishmania Mexicana promastigotes LmGLUT1 that are glucose transport deficient and complemented with the human glucose transporter GLUT1. Activity is measured by DNA content using SYBR green in vitro; format: functional
Exercise: state measured inhibition for each of the compounds provided.
One number for each entry, in %.

Q. // inhibition lookup, key: Cc1cccc(-c2nn(-c3ccccc3)c3[nH]c(=O)c(CN4CCSCC4)cc23)c1
A. -2.69

Q. Same question, CN(c1ccc2c(c1)nc(Nc1cc(C(C)(C)C)on1)n2C)c1ccnc(Nc2ccc(CS(C)(=O)=O)cc2)n1 this time
A. -1.02

Q. And for COc1ccc(C2=C(Nc3ccc4oc5ccccc5c4c3)c3ccccc3C2=O)cc1 ?
A. 0.72

Q. And then O=C(Nc1ccccc1)c1ccc(-c2cc3ccncc3cc2OC2CCNCC2)s1 , what is it?
A. -3.12

Q. Next up: COc1ccc(C)c(Nc2ccnc(Nc3cccc(-c4nc5ccccc5[nH]4)c3)n2)c1
A. 3.82

Q. Now consider O=C(/C=C/C=C/c1ccccc1)NCCCCCN1CCC(c2c[nH]c3ccccc23)CC1 and answer again.
A. 3.2

Q. Check O=C(/C=C/c1ccc([N+](=O)[O-])cc1)N1CCC(NS(=O)(=O)c2cccc(C(F)(F)F)c2)CC1 too.
A. 3.4

Q. And what about the compound O=C(c1cccc(-c2cccc(-c3nc4cc(F)ccc4[nH]3)c2)c1)N1CCCCC1CN1CCC(O)C1 (centres undefined) ?
A. 0.52

Q. For CCNc1cc(C(=O)N[C@@H](Cc2ccccc2)[C@H](O)CNCc2cc(OC)cc(OC)c2)cc(N2CCCC2=O)c1 then?
A. 7.69

Q. Same question, COc1ccc2nccc(CCC3(O)CCC(NCc4cc5c(cc4F)SCC(=O)N5)CC3)c2c1 (centres undefined) this time
A. 0.25

Quick one: give me inhibition for each item below, same order please.
1. Cc1cccc2nc(-c3cccc(-c4ccc(CN5CCCC5CN)cc4)c3)[nH]c12 (centres undefined)
2. CCCNS(=O)(=O)c1ccc(NC(=O)C(C)Oc2ccc([N+](=O)[O-])cc2)cc1 (centres undefined)
3. O=C(NCCN1CCC(c2ncc(-c3ccccc3)o2)CC1)c1ccc(NC(=O)c2ccc(Cl)cc2)cc1
4. C=CCNc1cc(-c2ccccn2)nc(-c2ccccn2)n1
5. O=c1ccc(CNc2nc(NCCc3ccccc3)nc3ccc(Cl)cc23)c[nH]1

A.
1.85
0.31
0.84
31.9
3.36

// each listed compound needs a value for inhibition
1. O=C(Nc1ccc(-c2cccc(-c3nc4ccccc4[nH]3)c2)cc1)Nc1ccc(Cl)c(Cl)c1
2. CCCCC(=O)Nc1ccc(Nc2nc(C)cc(N3CCCC3)n2)cc1
3. N=C(N)c1ccc2[nH]c(-c3cc4cc(C(=N)N)ccc4o3)cc2c1
4. COc1ccccc1N1CCN(CCCCN(C(=O)Nc2cccc(Cl)c2)C(=O)Nc2cccc(Cl)c2)CC1

A.
-0.46
2.54
2.26
10.6

# per-item lookup of inhibition; items listed below
1. O=S(=O)(NCCN1CCCC1)c1cccc(-c2ccccc2CNC2Cc3ccccc3C2)c1
2. Cn1c(NC(=O)c2ccc(CNC(=O)c3ccc(O)c(-c4ccc(Cl)c(Cl)c4)c3)cc2)nc2ccccc21
3. CCCC(=O)c1cnc2cc(O)ccc2c1Nc1ccccc1C
4. Cc1nccc2c(NC(=O)N[C@@H]3CCN(c4ncc(C(F)(F)F)cc4Br)C3)cccc12
5. COc1ccc(OCCCON2C(=N)N=C(N)NC2(C)C)cc1
6. Cc1c(Cl)ccc2c(C(=O)Nc3ccncc3)cc(-c3cccnc3)nc12

A.
1. 60.1
2. 4.29
3. 6.19
4. 1.06
5. 5
6. -4.52

Dear colleague, could you send me inhibition for each of the items below? Thanks.
1. O=C(c1cc2nc3c(c(C(F)(F)F)n2n1)CCc1ccccc1-3)N1CCN2CCCC2C1 (centres undefined)
2. COc1ccc2ncc(C#N)c(CCN3CCC(NCc4ccc5c(n4)NC(=O)CS5)CC3)c2n1
3. O=C(NCc1cccc(Br)c1)c1ccc(CNC2CCN(Cc3ccccc3)CC2)cc1
4. CCOC(=O)c1ccc(NC(=O)Nc2ccc(-c3cccc(-c4nc5cccc(C)c5[nH]4)c3)cc2)cc1
5. COc1cc(C(=O)NC2CCc3ccccc32)cc(Cl)c1OC (centres undefined)
6. CC(=O)Nc1ccc(C(=O)Nc2ccc(-c3cccc(-c4nc5cc(F)ccc5[nH]4)c3)cc2)cn1

A.
[2.06, 3.43, 5.34, -0.01, -4.04, 0.13]

State recorded inhibition for all listed compounds.
1. Cc1cc(CN2CC[C@H](NC(=O)c3ccc(Cl)c(Cl)c3)C2)ccc1OCCN1CCCC1
2. COc1ccccc1Cc1c(C)nc2nc(N)nc(N)c2c1C
3. Cc1noc(C)c1-c1ccc2c(Nc3ccccc3C(C)(C)C)c(C(=O)NCc3ccc(OC(C)C)cc3)cnc2c1
4. COc1ccc(Cn2c(N3CCN(S(=O)(=O)c4ccc(OC)cc4)CC3)nc3c2c(=O)n(CC2CC2)c(=O)n3CC2CC2)cc1
5. CC(=O)c1c(Nc2c(C)cc(C)cc2C)oc(C)cc1=O
6. O=C(Cc1cccc(Cl)c1)Nc1cccc(-c2c[nH]c3nc(Nc4ccccc4)ncc23)c1
7. N=c1sc2ccccc2n1CC(O)c1ccc(Cl)c(Cl)c1 (centres undefined)

A.
-1.05
6.33
3.36
0.89
3.7
3.42
-1.41

Q. Endpoint output: inhibition of O=C(Cc1cccc(O)c1)NCC(Cc1ccc(O)cc1)c1ccccc1 (centres undefined) . Value?
A. 0.64

---

molecular target: Solute carrier family 2, facilitated glucose transporter member 1 (Homo sapiens) (UniProt P11166); test: ST_JUDE_LEISH: Cytotoxicity at 2uM final concentration against transgenic Leishmania Mexicana promastigotes LmGLUT1 that are glucose transport deficient and complemented with the human glucose transporter GLUT1. Activity is measured by DNA content using SYBR green in vitro; type: functional
Sequence (P11166 whole entry): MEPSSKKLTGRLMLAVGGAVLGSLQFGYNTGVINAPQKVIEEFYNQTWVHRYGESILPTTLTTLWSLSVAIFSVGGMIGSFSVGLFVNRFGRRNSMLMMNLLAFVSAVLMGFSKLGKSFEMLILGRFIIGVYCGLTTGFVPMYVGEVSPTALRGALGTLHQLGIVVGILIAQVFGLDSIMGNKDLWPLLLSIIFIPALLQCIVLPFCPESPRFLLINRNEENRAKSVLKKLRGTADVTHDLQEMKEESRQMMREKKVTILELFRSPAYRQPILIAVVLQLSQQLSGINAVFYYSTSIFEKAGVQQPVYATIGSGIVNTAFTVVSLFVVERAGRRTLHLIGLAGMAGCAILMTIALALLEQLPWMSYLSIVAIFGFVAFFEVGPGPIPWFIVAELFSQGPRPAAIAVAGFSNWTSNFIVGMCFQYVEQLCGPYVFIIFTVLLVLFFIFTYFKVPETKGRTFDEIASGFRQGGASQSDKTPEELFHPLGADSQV
quantity.kind: inhibition (%)
Numbers only, in %.

# count of solved cases: 3
Q. inhibition lookup needed for COc1ccc(S(=O)(=O)N2CCCc3ccc(Br)cc32)cc1N1CCN(C(=O)C(Cl)(Cl)Cl)CC1 , thanks.
A. 2.54

Q. Similarly, CCCC(CCC)n1ccc2c3c(N)nc(N)nc3ccc21 ?
A. 59.8

Q. Entry CN(Cc1ccccc1)C(=O)c1nn(CCCN2CCC(N3CCCC3)CC2)cc1-c1ccc(Cl)c(Cl)c1 please
A. 27.6

# batch size: 8; output inhibition per entry
1. Nc1ncnc2nc(-c3ccc(F)cc3)cc(-c3ccc(NC(=O)c4ccccc4)cc3)c12
2. COc1ccc(OC)c2c1CC1NCC2c2c(OC)ccc(OC)c21 (stereo not given)
3. Cc1ccc2[nH]c(C)cc(=NN=Cc3ccccc3Cl)c2c1
4. COc1ccc(-n2c(=O)c3c(n4c(SC(C)C)nnc24)-c2ccccc2CC32CCCCC2)cc1
5. N=C1C=C(N)C(=O)c2ccccc21
6. Cc1ccc2cc(NC(=O)c3cccc(C(=O)Nc4ccc5nc(C)ccc5c4)n3)ccc2n1
7. CCCc1cc(NCC)nc(Nc2ccc(F)cc2)n1
8. O=C(NCCc1ccc(Cl)c(Cl)c1)[C@@H]1CCCN1C(=O)c1ccc(O)c(-c2cccc(C(F)(F)F)c2)c1

A.
1. 4.74
2. 2.86
3. 2.11
4. 1.32
5. 89
6. 15.1
7. 15.6
8. 1.34

The following compounds each have a reported value; give each one's inhibition.
1. CCNc1cc(C(=O)N[C@@H](Cc2ccccc2)[C@H](O)CNCC(C)C)cc(N2CCCC2=O)c1
2. Cc1cc(C2CCN(CCCCNC(=O)c3ccc(-c4ccc(C#N)cc4)cc3)CC2)c(C)cc1OCCO
3. Cc1cccc2nc(-c3cccc(-c4ccc(NC(=O)c5c[nH]cn5)cc4)c3)[nH]c12

A.
2.24
10
-0.79

Give inhibition for each listed item.
1. CS(=O)(=O)c1ccc(-c2cnc(N)c(-c3ccc(O)cc3)c2)cc1
2. Cc1ccccc1CNc1noc(-c2c(-c3ccccc3)noc2C)n1

A.
1. 2.19
2. -2.97

---

target: Solute carrier family 2, facilitated glucose transporter member 1 (Homo sapiens) (UniProt P11166); assay: ST_JUDE_LEISH: Cytotoxicity at 2uM final concentration against transgenic Leishmania Mexicana promastigotes LmGLUT1 that are glucose transport deficient and complemented with the human glucose transporter GLUT1. Activity is measured by DNA content using SYBR green in vitro; type: functional
quantity.kind: inhibition (%)
Numbers only, in %.

Q. Fill in the blank: the reported inhibition of Cc1nc(-c2cccc(C(=O)N(Cc3cncn3Cc3cccc(C(F)(F)F)c3)CC3CC3)c2)cs1 is ____.
A. 2.11

Q. Now this one: COc1cc(C(=O)Nc2cccc(-c3cn4cccc(C)c4n3)c2)cc(OC)c1OC
A. 15.8

Q. Same again, this time with Cc1cc(=NN=Cc2ccc(F)cc2)c2ccc(F)cc2[nH]1
A. 0.14

Give inhibition for each of the items listed below.
1. CC(C)(C)OC(=O)N1CCN(c2ccccc2NC(=O)c2cccc(C(F)(F)F)c2Oc2ccc(F)cc2)CC1
2. Oc1ccc(-c2ccccc2)cc1CN1CCCCC1

A.
[-1.41, 4.4]

Record inhibition per entry; entries follow.
1. c1ccc(CCNc2ccnc(Nc3ccc4[nH]nnc4c3)n2)cc1
2. CCc1cn(CCCOC)c2ccc(C(=O)N[C@@H](Cc3ccccc3)[C@H](O)CNCc3cccc(C(F)(F)F)c3)cc12
3. CC(=O)c1cccc(NC(=O)NC2CCN(CCCCCNC(=O)/C=C/c3ccc(Cl)c(Cl)c3)CC2)c1
4. CC(C)(C)c1ccc(CN(C[C@@H](O)CNS(=O)(=O)c2cc(Cl)cc(Cl)c2)C(C)(C)C)cc1
5. Cc1cnc(Nc2ccccc2)nc1NCCC(=O)Nc1ccccc1
6. COc1ccccc1N(C)CCNc1cc(C)nc(Nc2ccccc2)n1
7. Cc1ccc(F)c(OCC2CCCN(c3ccc(C(=O)NC4CC4)cn3)C2)c1 (stereo not drawn)
8. CN1CCN(c2cc(-c3cccc(C(F)(F)F)c3)nc(-c3ccncc3)n2)CC1

A.
14.1
3.43
1.56
0.82
6.97
11.5
3.46
2.69

Dear reader, for each entry below, please note its inhibition.
1. COc1ccc(-c2nc(NC(=O)Cc3ccc(OC)c(OC)c3)sc2C)cc1
2. Cn1cnc(CCNC(=O)c2ccc(-c3cccc(-c4nc5cc(F)ccc5[nH]4)c3)cc2)c1
3. COc1cc(OC)cc(C(=O)Nc2cccc(-c3cn4ccc(C)cc4n3)c2)c1
4. CN(C)CCNCc1cccc(-c2ccc3c(Nc4ccc(F)cc4Cl)ccnc3c2)c1
5. Cc1ccc(/C=C/C(=O)NCCCCCN2CCN(C(=O)Nc3ccc(Cl)c(C(F)(F)F)c3)CC2)cc1
6. COc1ccc(C(C)Nc2nc(N)c3cc(OC)c(OC)cc3n2)cc1 (stereo not drawn)
7. CCC[C@@H]([C@@H](CC1CCCCC1)C(=O)N[C@@H](CCCCNS(C)(=O)=O)C(=O)Nc1nccs1)N(O)C=O
8. CC(=O)c1cccc(Nc2nc3ccc(OCc4cc(Cl)cc(Cl)c4)c(C#N)c3[nH]2)c1

A.
1: 1.75; 2: 2.97; 3: 6.3; 4: 3.59; 5: 4.47; 6: 4.72; 7: 1.61; 8: 3.61

The origin of these recorded values is ChEMBL document CHEMBL3433997.
